system: NCI-H23 complex spheroids with HUVEC/MSC, viability; experiment: Anticancer human tumor NCI-H23 cell line growth inhibition [RAS]; conditions: second compound 0.003 µM; first compound 0.01 µM; active compounds read low;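 note: spheroids exposed to compound for 7 days; 100% = DMSO vehicle control viability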
readout_type: viability, T/C (%)

# compound, readout_type, unit_info, value
records = [
    ("CC(C)n1nc(-c2ccc3oc(N)nc3c2)c2c(N)ncnc21 + CCn1c(-c2cc(N3CCN(C)CC3)cnc2C(C)OC)c2c3cc(ccc31)-c1csc(n1)CC(NC(=O)C1CC1C)C(=O)N1CCCC(N1)C(=O)OCC(C)(C)C2", "viability, T/C", "%", 21.6),
    ("CCN1CCN(Cc2ccc(Nc3ncc(F)c(-c4cc(F)c5nc(C)n(C(C)C)c5c4)n3)nc2)CC1 + CCn1c(-c2cc(N3CCN(C)CC3)cnc2C(C)OC)c2c3cc(ccc31)-c1csc(n1)CC(NC(=O)C1CC1C)C(=O)N1CCCC(N1)C(=O)OCC(C)(C)C2", "viability, T/C", "%", 22.1),
    ("Nc1ccn(C2OC(CO)C(O)C2(F)F)c(=O)n1 (centres undefined) + CCn1c(-c2cc(N3CCN(C)CC3)cnc2C(C)OC)c2c3cc(ccc31)-c1csc(n1)CC(NC(=O)C1CC1C)C(=O)N1CCCC(N1)C(=O)OCC(C)(C)C2", "viability, T/C", "%", 1.96),
    ("Nc1ccn(C2OC(CO)C(O)C2(F)F)c(=O)n1 (centres undefined) + CCn1c(-c2cccnc2C(C)OC)c2c3cc(ccc31)N1CCOC(CC(NC(=O)C(C(C)C)N(C)C(=O)C3(F)CCN(C(=O)C#CC(C)(C)N(C)C)CC3)C(=O)N3CCCC(N3)C(=O)OCC(C)(C)C2)C1", "viability, T/C", "%", 1.78),
]

---

test system: NCI-H23 complex spheroids with HUVEC/MSC, viability; assay: Anticancer human tumor NCI-H23 cell line growth inhibition [RAS]; conditions: second compound 3.16 µM; first compound 10 µM; active compounds read low;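 note: spheroids exposed to compound for 7 days; 100% = DMSO vehicle control viability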

# compound, unit_info, viability, T/C
data = [
    ("CC(Nc1ccc2c(c1)OCCn1cc(N3C(=O)OCC3C(F)F)nc1-2)C(N)=O (stereo not drawn) + C#Cc1c(F)ccc2cc(O)cc(-c3ncc4c(N5CC6CCC(C5)N6)nc(OCC56CCCN5CC(F)C6)nc4c3F)c12", "%", 48.1),
    ("CC1(O)CCCC1n1c(=O)c(C(F)F)cc2cnc(NC3CCN(S(C)(=O)=O)CC3)nc21 (stereo not drawn) + C#Cc1c(F)ccc2cc(O)cc(-c3ncc4c(N5CC6CCC(C5)N6)nc(OCC56CCCN5CC(F)C6)nc4c3F)c12", "%", 7.05),
    ("NC1c2ccccc2OC12CCN(c1cnc3c(N4CCCc5ncccc54)n[nH]c3n1)CC2 (stereo not drawn) + C#Cc1c(F)ccc2cc(O)cc(-c3ncc4c(N5CC6CCC(C5)N6)nc(OCC56CCCN5CC(F)C6)nc4c3F)c12", "%", 15.5),
]

---

# viability, T/C annotations
test system: NCI-H23 complex spheroids with HUVEC/MSC, viability; assay: Anticancer human tumor NCI-H23 cell line growth inhibition [RAS]; conditions: second compound 0.316 µM; first compound 0.0316 µM; active compounds read low;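 note: spheroids exposed to compound for 7 days; 100% = DMSO vehicle control viability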

# compound, viability, T/C (%)
data = [
    ("CC1(O)CCCC1n1c(=O)c(C(F)F)cc2cnc(NC3CCN(S(C)(=O)=O)CC3)nc21 (stereo not given) + C=CC(=O)N1CCN(c2nc(OCC3CCCN3C)nc3c(F)c(-c4nc(N)cc(C)c4C(F)(F)F)c(Cl)cc23)C(C)C1", 31.2),
    ("Nc1ccn(C2OC(CO)C(O)C2(F)F)c(=O)n1 (stereo not given) + C=CC(=O)N1CCN(c2nc(OCC3CCCN3C)nc3c(F)c(-c4nc(N)cc(C)c4C(F)(F)F)c(Cl)cc23)C(C)C1", 2.05),
    ("C=CC(=O)Nc1cc(Nc2nccc(-c3cn(C)c4ccccc34)n2)c(OC)cc1N(C)CCN(C)C + C#Cc1c(F)ccc2cc(O)cc(-c3ncc4c(N5CC6CCC(C5)N6)nc(OCC56CCCN5CC(F)C6)nc4c3F)c12", 95.5),
    ("Cc1nc(N2CCC3(CC2)COC(C)C3N)c(CO)nc1Sc1ccnc(N)c1Cl (stereo not given) + C#Cc1c(F)ccc2cc(O)cc(-c3ncc4c(N5CC6CCC(C5)N6)nc(OCC56CCCN5CC(F)C6)nc4c3F)c12", 106),
    ("CC1(O)CCCC1n1c(=O)c(C(F)F)cc2cnc(NC3CCN(S(C)(=O)=O)CC3)nc21 (stereo not given) + C#Cc1c(F)ccc2cc(O)cc(-c3ncc4c(N5CC6CCC(C5)N6)nc(OCC56CCCN5CC(F)C6)nc4c3F)c12", 86.5),
    ("NC1c2ccccc2OC12CCN(c1cnc3c(N4CCCc5ncccc54)n[nH]c3n1)CC2 (stereo not given) + C=CC(=O)N1CCN(c2nc(OCC3CCCN3C)nc3c(F)c(-c4nc(N)cc(C)c4C(F)(F)F)c(Cl)cc23)C(C)C1", 23.1),
    ("CC(C)n1nc(-c2ccc3oc(N)nc3c2)c2c(N)ncnc21 + C=CC(=O)N1CCN(c2nc(OCC3CCCN3C)nc3c(F)c(-c4nc(N)cc(C)c4C(F)(F)F)c(Cl)cc23)C(C)C1", 17.1),
    ("O=C(c1ccc(F)c(F)c1Nc1ccc(I)cc1F)N1CC(O)([C@@H]2CCCCN2)C1 + C=CC(=O)N1CCN(c2nc(OCC3CCCN3C)nc3c(F)c(-c4nc(N)cc(C)c4C(F)(F)F)c(Cl)cc23)C(C)C1", 30.6),
    ("CC(Nc1ccc2c(c1)OCCn1cc(N3C(=O)OCC3C(F)F)nc1-2)C(N)=O (stereo not given) + C#Cc1c(F)ccc2cc(O)cc(-c3ncc4c(N5CC6CCC(C5)N6)nc(OCC56CCCN5CC(F)C6)nc4c3F)c12", 107),
    ("Cc1nc(N2CCC3(CC2)COC(C)C3N)c(CO)nc1Sc1ccnc(N)c1Cl (stereo not given) + C=CC(=O)N1CCN(c2nc(OCC3CCCN3C)nc3c(F)c(-c4nc(N)cc(C)c4C(F)(F)F)c(Cl)cc23)C(C)C1", 31.1),
]

---

tested on: NCI-H23 complex spheroids with HUVEC/MSC, viability; assay: Anticancer human tumor NCI-H23 cell line growth inhibition [RAS]; conditions: second compound 10 µM; first compound 0.1 µM; active compounds read low;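 note: spheroids exposed to compound for 7 days; 100% = DMSO vehicle control viability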
# viability, T/C annotations

# compound, tgt, viability, T/C / %
measured = [
    ("CC(Nc1ccc2c(c1)OCCn1cc(N3C(=O)OCC3C(F)F)nc1-2)C(N)=O (stereo not given) + C#Cc1c(F)ccc2cc(O)cc(-c3ncc4c(N5CC6CCC(C5)N6)nc(OCC56CCCN5CC(F)C6)nc4c3F)c12", "NCI-H23 complex spheroids with HUVEC/MSC, viability", 38.7),
    ("O=C(c1ccc(F)c(F)c1Nc1ccc(I)cc1F)N1CC(O)([C@@H]2CCCCN2)C1 + C#Cc1c(F)ccc2cc(O)cc(-c3ncc4c(N5CC6CCC(C5)N6)nc(OCC56CCCN5CC(F)C6)nc4c3F)c12", "NCI-H23 complex spheroids with HUVEC/MSC, viability", 31.9),
    ("CC1(O)CCCC1n1c(=O)c(C(F)F)cc2cnc(NC3CCN(S(C)(=O)=O)CC3)nc21 (stereo not given) + C#Cc1c(F)ccc2cc(O)cc(-c3ncc4c(N5CC6CCC(C5)N6)nc(OCC56CCCN5CC(F)C6)nc4c3F)c12", "NCI-H23 complex spheroids with HUVEC/MSC, viability", 28.3),
    ("CCN1CCN(Cc2ccc(Nc3ncc(F)c(-c4cc(F)c5nc(C)n(C(C)C)c5c4)n3)nc2)CC1 + C#Cc1c(F)ccc2cc(O)cc(-c3ncc4c(N5CC6CCC(C5)N6)nc(OCC56CCCN5CC(F)C6)nc4c3F)c12", "NCI-H23 complex spheroids with HUVEC/MSC, viability", 21.1),
    ("C[C@@H](NC(=O)c1ncnc(N)c1Cl)c1ncc(C(=O)Nc2cc(C(F)(F)F)c(Cl)cn2)s1 + C#Cc1c(F)ccc2cc(O)cc(-c3ncc4c(N5CC6CCC(C5)N6)nc(OCC56CCCN5CC(F)C6)nc4c3F)c12", "NCI-H23 complex spheroids with HUVEC/MSC, viability", 49.5),
]

---

tested on: NCI-H23 complex spheroids with HUVEC/MSC, viability; test: Anticancer human tumor NCI-H23 cell line growth inhibition [RAS]; conditions: second compound 0.316 µM; first compound 3.16 µM; active compounds read low;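 note: spheroids exposed to compound for 7 days; 100% = DMSO vehicle control viability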
# viability, T/C annotations

# compound, viability, T/C [%]
rows = [
    ("CC(=O)OC12COC1CC(O)C1(C)C(=O)C(O)C3=C(C)C(OC(=O)C(O)C(NC(=O)OC(C)(C)C)c4ccccc4)CC(O)(C(OC(=O)c4ccccc4)C21)C3(C)C (stereo not given) + C#Cc1c(F)ccc2cc(O)cc(-c3ncc4c(N5CC6CCC(C5)N6)nc(OCC56CCCN5CC(F)C6)nc4c3F)c12", 46.1),
    ("CCC(CC)c1cc(NC2CCC(N)C2)n2nccc2n1 (stereo not given) + C#Cc1c(F)ccc2cc(O)cc(-c3ncc4c(N5CC6CCC(C5)N6)nc(OCC56CCCN5CC(F)C6)nc4c3F)c12", 10.2),
    ("NC1c2ccccc2OC12CCN(c1cnc3c(N4CCCc5ncccc54)n[nH]c3n1)CC2 (stereo not given) + C#Cc1c(F)ccc2cc(O)cc(-c3ncc4c(N5CC6CCC(C5)N6)nc(OCC56CCCN5CC(F)C6)nc4c3F)c12", 31.4),
    ("CC(Nc1ccc2c(c1)OCCn1cc(N3C(=O)OCC3C(F)F)nc1-2)C(N)=O (stereo not given) + C=CC(=O)N1CCN(c2nc(OCC3CCCN3C)nc3c(F)c(-c4nc(N)cc(C)c4C(F)(F)F)c(Cl)cc23)C(C)C1", 25.9),
    ("CC1(O)CCCC1n1c(=O)c(C(F)F)cc2cnc(NC3CCN(S(C)(=O)=O)CC3)nc21 (stereo not given) + C#Cc1c(F)ccc2cc(O)cc(-c3ncc4c(N5CC6CCC(C5)N6)nc(OCC56CCCN5CC(F)C6)nc4c3F)c12", 72.2),
]
